biological target: UniProtKB P78329; assay: Inhibition test against 20-HETE producing enzyme CYP4F2 (luciferine derivative, luminescence); type: biochemical; settings: human CYP4F2, luciferine derivative, luminescence
reported.endpoint: IC50 (nM)

Worked examples follow.
* O=C(O)C1(CCCCCCCCOc2ccc(-c3ccn[nH]3)nc2)CS(=O)(=O)C1 | 12
* O=C(O)C1(Cc2ccc(CCOc3ccc(-c4ccn[nH]4)nc3)cc2)CC1 | 1100

(P) CC(C)(COc1ccc(COc2ccc(-c3ccn[nH]3)nc2)cn1)C(=O)O
(Q) O=C(O)C1CC(c2cccc(CCOc3ccc(-c4ccn[nH]4)nc3)c2)C1 (stereo not shown)
### Prompt Form: Entry with minimum IC50 (choose one): P / Q Please indicate the selected item by its label.
### Response Q
(Q: 540 nM, P: 780 nM)

---

target: UniProtKB Q02928; assay: Inhibition test against 20-HETE producing enzyme CYP4A11 (luciferine derivative, luminescence); type: biochemical; conditions: human CYP4A11, luciferine derivative, luminescence
pIC50: −log10 of the molar value.
reported.endpoint: pIC50

Please review the entries below; each comes with its answer.
• CC(C)(Oc1ccc(CCOc2ccc(-c3ccn[nH]3)nc2)cc1)C(=O)O = 5.72
• CN(CCC(=O)O)C(=O)c1cccc(COc2ccc(-c3ccn[nH]3)nc2)c1 = 6.82

(1) CN(C)C(=O)C1CC1c1cccc(COc2ccc(-c3ccn[nH]3)nc2)c1 (stereo not shown)
(2) O=C(O)C[C@H](NC(=O)c1cccc(COc2ccc(-c3ccn[nH]3)nc2)c1)c1ccccc1
### Prompt Of 1 and 2 , which shows the smaller pIC50 value? Write down the label of the entry you select.
### Response 2

---

biological target: human CYP4A11 (Homo sapiens (Human)); assay: Inhibition test against 20-HETE producing enzyme CYP4A11 (luciferine derivative, luminescence); format: biochemical; details: E. coli membrane fraction expressing human CYP4A11, 60 μM luciferine derivative, room temperature 60 minutes
Sequence (Q02928 5-519): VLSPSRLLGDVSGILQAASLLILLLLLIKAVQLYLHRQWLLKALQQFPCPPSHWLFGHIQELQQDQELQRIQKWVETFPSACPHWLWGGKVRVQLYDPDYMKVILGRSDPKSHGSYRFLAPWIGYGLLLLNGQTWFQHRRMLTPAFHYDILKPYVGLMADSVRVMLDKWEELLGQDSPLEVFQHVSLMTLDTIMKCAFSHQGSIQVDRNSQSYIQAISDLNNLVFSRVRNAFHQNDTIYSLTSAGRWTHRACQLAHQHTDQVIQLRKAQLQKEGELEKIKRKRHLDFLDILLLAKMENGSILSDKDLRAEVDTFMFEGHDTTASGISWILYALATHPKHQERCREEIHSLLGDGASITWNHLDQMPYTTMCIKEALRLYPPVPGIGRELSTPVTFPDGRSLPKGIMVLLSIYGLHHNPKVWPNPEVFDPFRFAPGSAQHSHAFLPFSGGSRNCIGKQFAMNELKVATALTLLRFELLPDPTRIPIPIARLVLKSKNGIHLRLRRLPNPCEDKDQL
pIC50: −log10 of the molar value.
reported.endpoint: pIC50

• O=C(O)c1ccc(CCCOc2ccc(-c3ccn[nH]3)nc2)cc1 [Example 1-8] = 7.11

(P) CC(C)(CCN1CCc2ccc(COc3ccc(-c4ccn[nH]4)nc3)cc2C1=O)C(=O)O [Example 8-6]
(Q) O=C(O)CCCCCOc1ccc(-c2ccn[nH]2)nc1 [Example 1-47]
(R) O=C(O)[C@]12CC3C[C@H](C1)[C@H](COc1ccc(-c4ccn[nH]4)nc1)[C@@H](C3)C2 [Example 2-1]
### Prompt Sort the 3 molecules by pIC50; largest first, smallest last. In plain terms: list the labels in the order you were asked to.
### Response R, Q, P
(R: 7.64, Q: 7.17, P: 5.60)

---

molecular target: human CYP4F2 (Homo sapiens (Human)); assay: Inhibition test against 20-HETE producing enzyme CYP4F2 (luciferine derivative, luminescence); format: biochemical; conditions: human CYP4F2, luciferine derivative, luminescence
pIC50: −log10 of the molar value.
reported.endpoint: pIC50

(P) CN(C)C(=O)/C=C/c1cccc(COc2ccc(-c3ccn[nH]3)nc2)c1
(Q) CNC(=O)C(C)(C)c1cccc(COc2ccc(-c3ccn[nH]3)nc2)c1
(R) O=C(O)C1(Cc2cccc(COc3ccc(-c4ccn[nH]4)nc3)c2F)CC1
(S) O=C(O)C1CC1c1cccc(CCOc2ccc(-c3ccn[nH]3)nc2)c1F (stereo not drawn)
(T) CC(C)(COc1cc(CCOc2ccc(-c3ccn[nH]3)nc2)ccn1)C(=O)O
### Prompt Descending sort on pIC50 required. Please, when replying, give the labels in the order that was requested.
### Response P, S, Q, T, R

(P) O=C(O)C1COc2cc(COc3ccc(-c4ccn[nH]4)nc3)ccc2C1 (stereo not drawn)
(Q) CC(C)(Oc1cccc(CCOc2ccc(-c3ccn[nH]3)nc2)c1)C(=O)O
### Prompt Sort P and Q by pIC50 descending and give the first. Answer by quoting the chosen item's label.
### Response P

(1) O=C(O)/C=C/c1cccc(CCOc2ccc(-c3ccn[nH]3)nc2)c1
(2) O=C(O)c1cccc(CCCCCOc2ccc(-c3ccn[nH]3)nc2)n1
### Prompt I'm curious, which of these has a smaller pIC50 number: 1 or 2 ? // respond with label for picked entry
### Response 2
(2: 5.89, 1: 7.25)

---

biological target: human CYP4F2 (Homo sapiens (Human), UniProt P78329); assay: Inhibition test against 20-HETE producing enzyme CYP4F2 (luciferine derivative, luminescence); assay type: biochemical; conditions: human CYP4F2, luciferine derivative, luminescence
Sequence (P78329 5-520): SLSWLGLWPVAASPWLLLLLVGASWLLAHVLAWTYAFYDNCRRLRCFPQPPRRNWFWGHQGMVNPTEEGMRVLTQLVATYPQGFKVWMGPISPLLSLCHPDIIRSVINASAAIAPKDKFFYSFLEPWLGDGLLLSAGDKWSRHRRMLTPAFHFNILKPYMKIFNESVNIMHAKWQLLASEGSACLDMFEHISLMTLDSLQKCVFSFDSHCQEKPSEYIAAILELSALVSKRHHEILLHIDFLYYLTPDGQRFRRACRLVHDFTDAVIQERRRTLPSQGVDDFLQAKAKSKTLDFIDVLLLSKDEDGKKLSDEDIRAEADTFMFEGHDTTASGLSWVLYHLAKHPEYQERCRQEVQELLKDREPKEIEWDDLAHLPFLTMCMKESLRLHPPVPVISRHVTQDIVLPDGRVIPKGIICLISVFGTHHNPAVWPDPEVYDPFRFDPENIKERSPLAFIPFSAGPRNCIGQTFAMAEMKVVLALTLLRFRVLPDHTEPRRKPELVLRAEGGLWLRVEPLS
reported.endpoint: IC50 (nM)

The examples below pair each entry with its known result.
* O=C(O)[C@H]1CCCN1C(=O)c1cccc(COc2ccc(-c3ccn[nH]3)nc2)c1 | 13000
* O=C(O)CCc1cccc(COc2ccc(-c3ccn[nH]3)nc2)c1F | 1100
* O=C(O)C1CC1c1ccc(CCOc2ccc(-c3ccn[nH]3)nc2)cc1 (stereo not drawn) | 200
* O=C(O)C1(Cc2cccc(CCOc3ccc(-c4ccn[nH]4)nc3)c2F)CC1 | 1700
* O=C(O)C1CC1c1cc(F)cc(CCOc2ccc(-c3ccn[nH]3)nc2)c1 (stereo not drawn) [Example 74-9] | 19000

(a) O=C(O)C1CC1c1ccc(F)c(CCOc2ccc(-c3ccn[nH]3)nc2)c1 (stereo not drawn) [Example 74-6]
(b) O=C(O)C1CC1c1ccc(COc2ccc(-c3ccn[nH]3)nc2)cc1F (stereo not drawn)
(c) CC(C)(COc1cccc(COc2ccc(-c3ccn[nH]3)nc2)n1)C(=O)O
### Prompt Exam item: list the entries in increasing order of IC50. In your reply, arrange the labels in the requested order.
### Response b, c, a
(b: 330 nM, c: 1700 nM, a: 16000 nM)

(I) CC(C)(COc1cccc(CCCOc2ccc(-c3ccn[nH]3)nc2)n1)C(=O)O
(II) O=C(O)[C@@H]1C[C@H]1c1cccc(CCOc2ccc(-c3ccn[nH]3)nc2)c1F
(III) O=C(O)C1(CCCCCCCCOc2ccc(-c3ccn[nH]3)nc2)COC1
(IV) O=C(O)/C=C/c1ccc(CCOc2ccc(-c3ccn[nH]3)nc2)cc1F
(V) O=C(O)[C@@H]1CCc2ccc(CCOc3ccc(-c4ccn[nH]4)nc3)cc2O1
### Prompt Rank entries according to their IC50, from the largest number down. Please list the labels in the order you were asked to rank them.
### Response I, V, II, III, IV

(a) O=C(c1cccc(COc2ccc(-c3ccn[nH]3)nc2)c1)N1CCC(F)(C(=O)O)C1 (stereo not drawn)
(b) CC(C)(CNS(=O)(=O)c1cccc(COc2ccc(-c3ccn[nH]3)nc2)c1)C(=O)O
### Prompt Given a and b , report the one with the higher recorded IC50. Give the label of your selection.
### Response a

(A) CC[C@H](OCCCCCCCOc1ccc(-c2ccn[nH]2)nc1)C(=O)O
(B) CC(C)(CCNC(=O)c1cc(COc2ccc(-c3ccn[nH]3)nc2)ccn1)C(=O)O
### Prompt Kindly identify the item with the lower IC50 figure among these two: A and B Mark your answer with the label of the selected entry.
### Response A

(a) CN(C)C(=O)[C@H]1C[C@](O)(c2cc(COc3ccc(-c4ccn[nH]4)nc3)ccc2F)C1
(b) O=C(O)C1(Cc2cccc(COc3ccc(-c4ccn[nH]4)nc3)c2F)COC1
(c) O=C(O)C1CC1c1cc(F)cc(CCOc2ccc(-c3ccn[nH]3)nc2)c1 (single isomer, unassigned) [Example 74-10]
(d) O=C(CCc1cccc(COc2cnc(-c3ccn[nH]3)c(F)c2)c1)NC1COC1
### Prompt Order the 4 compounds from highest to lowest IC50. Lab note: final answer is the ordered label list.
### Response b, c, a, d
(b: 9700 nM, c: 2600 nM, a: 99 nM, d: 11 nM)

(P) O=C(CCc1cccc(COc2ccc(-c3ccn[nH]3)nc2)c1)NC[C@H]1CCCO1
(Q) O=C(O)[C@@H]1CCc2ccc(COc3ccc(-c4ccn[nH]4)nc3)cc2C1
### Prompt Lab note: record which item had the higher IC50, P or Q . Mark your answer with the label of the selected entry.
### Response Q
(Q: 240 nM, P: 21 nM)

(1) C[C@H](NC(=O)c1cccc(COc2ccc(-c3ccn[nH]3)nc2)c1)C(=O)O
(2) O=C(O)C1CC1c1ccc(F)c(CCOc2ccc(-c3ccn[nH]3)nc2)c1 (single isomer, unassigned) [Example 74-8]
### Prompt Between 1 and 2 , whose recorded IC50 is greater? Use the label to indicate which entry you chose.
### Response 1

(1) CC(C)(Cc1ccc(CCOc2ccc(-c3ccn[nH]3)nc2)cn1)C(=O)O
(2) CC(C)(COc1ccc(CCOc2ccc(-c3ccn[nH]3)nc2)cn1)C(=O)O
### Prompt Just tell me: smaller IC50 value, 1 or 2 ? Lab note: record the label of whichever item you select.
### Response 2

---

target: UniProt:P78329; assay: Inhibition test against 20-HETE producing enzyme CYP4F2 (luciferine derivative, luminescence); format: biochemical; settings: E. coli membrane fraction expressing human CYP4F2, 2.5 μM luciferine derivative, room temperature 60 minutes
pIC50: −log10 of the molar value.
reported.endpoint: pIC50

Worked cases, answers included:
* O=C(O)C1CCN(c2cccc(COc3ccc(-c4ccn[nH]4)nc3)c2)CC1 [Example 34-1] | 5.39
* O=C(O)C1(CCCCCCOc2ccc(-c3ccn[nH]3)nc2)CCS(=O)(=O)CC1 [Example 3-7] | 5.24
* CC(C)(O)c1cc(COc2ccc(-c3ccn[nH]3)nc2)ccc1F [Example 27-5] | 6.05
* CC(C)(C(=O)O)c1cccc(S(=O)(=O)CCCCOc2ccc(-c3ccn[nH]3)nc2)c1 [Example 8-5] | 5.64

(I) CC(=O)N1CC(O)(c2cccc(COc3ccc(-c4ccn[nH]4)nc3)c2)C1 [Example 52-2]
(II) O=C(O)C12CC(CCCCCCOc3ccc(-c4ccn[nH]4)nc3)(C1)C2 [Example 1-53]
(III) Cc1cn[nH]c1-c1ccc(OCC23CCC(C(=O)O)(CC2)CC3)cn1 [Example 38-3]
(IV) O=C(O)c1cccc(OCCOc2ccc(-c3ccn[nH]3)nc2)c1 [Example 18-6]
(V) CS(=O)(=O)c1cc(COc2ccc(-c3ccn[nH]3)nc2)ccc1O [Example 20-1]
### Prompt Place the items in sequence of falling pIC50. Could you list the labels in the order requested?
### Response I, II, V, IV, III
(I: 7.30, II: 6.48, V: 5.96, IV: 5.21, III: 4.77)
